Where do the numbers come from? From PubChem BioAssay AID1645855.

What inhibition was measured for each of the following?
# TARGET_ENTITY: Ubiquitin carboxyl-terminal hydrolase 17-like protein 5 (Homo sapiens) (UniProt A8MUK1)
# Sequence (A8MUK1 whole entry, looked up): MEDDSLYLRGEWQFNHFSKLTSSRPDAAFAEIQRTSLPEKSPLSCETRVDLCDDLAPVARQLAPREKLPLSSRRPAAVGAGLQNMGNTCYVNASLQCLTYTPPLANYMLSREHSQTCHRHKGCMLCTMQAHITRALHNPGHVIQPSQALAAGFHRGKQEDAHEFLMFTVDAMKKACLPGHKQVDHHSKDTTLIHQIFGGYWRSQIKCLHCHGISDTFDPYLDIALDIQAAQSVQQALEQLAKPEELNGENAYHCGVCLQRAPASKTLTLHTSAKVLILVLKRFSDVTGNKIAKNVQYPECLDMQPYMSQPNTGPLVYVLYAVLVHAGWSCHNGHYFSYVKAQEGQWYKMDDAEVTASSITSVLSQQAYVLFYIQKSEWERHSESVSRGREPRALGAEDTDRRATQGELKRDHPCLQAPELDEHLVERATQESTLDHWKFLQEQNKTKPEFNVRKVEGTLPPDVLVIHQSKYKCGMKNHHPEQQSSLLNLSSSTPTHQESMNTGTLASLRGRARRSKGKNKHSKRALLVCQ
# ASSAY_EXPLANATION: inhibitors of human USP17 deubiquitinase (AID 1645855)
# RUN_PARAMETERS: purified USP17, Ub-rhodamine cleavage fluorescence, 3 h; at 50 µM; active compounds read high
Out of some 47,000 compounds screened, about 3,100 (6.6%) were called active. This is one part of a sample in which actives are shown more often than they occur.
Value expressed in %; do not type the unit.

Ask: Identify measured inhibition corresponding to CC(=O)N1CC(C)Oc2cc(S(=O)(=O)Nc3ccc(C)cc3C)ccc21 (stereo not drawn)
Result: 6.48

Ask: Identify measured inhibition corresponding to Cc1nn(C)c(C)c1CN(C(=O)Cn1cc(C(C)C)nn1)C1CC1
Result: -1.87

Ask: Identify measured inhibition corresponding to CC(=O)Nc1nsc(N2CCC(C(=O)NCc3cccc(C)c3)CC2)n1
Result: -1.72

Ask: Identify measured inhibition corresponding to Cc1cccc(N2CCN(C(=O)C3CCCN(S(=O)(=O)N4CCC5(CC4)OCCO5)C3)CC2)c1C (stereo not drawn)
Result: 9.89

Ask: Identify measured inhibition corresponding to COC(=O)c1cccc(Nc2c(-c3ccccc3)nc3cnc(Br)cn23)c1
Result: -68.2

Ask: Identify measured inhibition corresponding to Cc1ccc(NC(=O)CCC(=O)N(c2ccccc2)c2ccccc2)cc1Cl
Result: 6.95

Ask: Identify measured inhibition corresponding to NC(=O)c1ccccc1NC(=O)C1CN(c2nc3c(F)cccc3s2)C1
Result: 31

Ask: Identify measured inhibition corresponding to COc1cccc(NC(=O)COC(=O)c2ccc(OC)c(S(=O)(=O)Nc3cc(Cl)c(OC)cc3OC)c2)c1
Result: 3.55

Ask: Identify measured inhibition corresponding to O=C(O)COc1ccccc1C(c1c[nH]c2ccccc12)c1c[nH]c2ccccc12
Result: -15.6

Ask: Identify measured inhibition corresponding to O=C(c1cccnc1)N1CC[C@@H]2CNS(=O)(=O)[C@@H]2CC1
Result: -5.34

Ask: Identify measured inhibition corresponding to CCN1C[C@@]23CN(C(=O)c4ccc(OC)cc4)C[C@@H](C[C@@H]2S1(=O)=O)O3
Result: 0.859

Ask: Identify measured inhibition corresponding to O=C(CCCn1c(=O)c2ccccc2n(Cc2ccccc2F)c1=O)NC1CCCC1
Result: 21.6

Ask: Identify measured inhibition corresponding to CC(C)Cc1cc(-c2nn3c(-c4ccccc4Cl)nnc3s2)n[nH]1
Result: 42.6

Ask: Identify measured inhibition corresponding to O=c1oc2cccnc2n1Cc1ccccc1F
Result: 13

Ask: Identify measured inhibition corresponding to CCn1nccc1C1CCCN1C(=O)Nc1ccc(Cl)cc1 (stereo not drawn)
Result: 1.51

Ask: Identify measured inhibition corresponding to Cc1ccnc(Nc2nc(-c3ccccc3)c3cc(Cl)ccc3n2)n1
Result: 91.1

Ask: Identify measured inhibition corresponding to CC(=O)N1c2ccc(S(=O)(=O)NCC3CCC(C(=O)Nc4cccnc4)CC3)cc2CC1C (stereo not drawn)
Result: 0.344

Ask: Identify measured inhibition corresponding to O=C(c1ncccn1)N1CCCC1c1ncc(Cc2ccccc2Cl)o1 (stereo not drawn)
Result: 0.408

Ask: Identify measured inhibition corresponding to COc1cccc(NC(=O)c2nn(-c3ccc(F)cc3)c(OC)cc2=O)c1
Result: -0.739

Ask: Identify measured inhibition corresponding to COCCCn1c(=O)c2ccccc2n(Cc2nc(-c3ccccc3)no2)c1=O
Result: -3.49

Ask: Identify measured inhibition corresponding to Cc1nc(C2CCN(S(C)(=O)=O)CC2)nc2c1CCC(=O)N2CC(C)C
Result: -7.01

Ask: Identify measured inhibition corresponding to CNC(=O)C1CCN(c2nc3ccc(-c4ccccc4F)nc3s2)CC1
Result: 15.7

Ask: Identify measured inhibition corresponding to COc1ccc(NC(=O)Cc2noc(-c3cccc(OC)c3)n2)cc1
Result: 35.7

Ask: Identify measured inhibition corresponding to CC(=O)N1CCCC(c2ccnc(Nc3ccccn3)n2)C1 (stereo not drawn)
Result: 6.44

Ask: Identify measured inhibition corresponding to O=C(c1sc2cnccc2c1-n1cccc1)N1CCc2ccccc2C1
Result: 8.13

Ask: Identify measured inhibition corresponding to COc1cccc(N2CCCN(C(=O)c3ccc4nc(C)[nH]c4c3)CC2)c1
Result: -10.9

Ask: Identify measured inhibition corresponding to COc1ccc(S(=O)(=O)Nc2ccc(-c3ccc(OC)nn3)cc2)cc1
Result: 14.6

Ask: Identify measured inhibition corresponding to Cc1cccc(-c2nnc(-c3cccc(S(=O)(=O)N4CCCC4)c3)o2)c1
Result: 6.44

Ask: Identify measured inhibition corresponding to Cc1ccc(NC(=O)CCOc2ccccc2)cc1S(=O)(=O)Nc1ccccc1Cl
Result: 39.7

Ask: Identify measured inhibition corresponding to N#Cc1ccccc1Cn1c(=O)n(CCCC(=O)NCc2ccc(F)cc2)c(=O)c2ccccc21
Result: 30.8

Ask: Identify measured inhibition corresponding to O=C(OCc1ccccc1F)c1cc(-c2ccccc2)nc2ccccc12
Result: 7.27

Ask: Identify measured inhibition corresponding to Cn1c(CCNC(=O)c2ccc(C(C)(C)C)cc2)nc2cccnc21
Result: -167

Ask: Identify measured inhibition corresponding to COc1ccc(Cn2cc(-c3nc(C4CC4)no3)ccc2=O)cc1F
Result: -5.47

Ask: Identify measured inhibition corresponding to COc1cc(C2CC(=O)c3cnc(N4CCc5ccccc5C4)nc3C2)cc(OC)c1OC (stereo not drawn)
Result: 7.46

Ask: Identify measured inhibition corresponding to Cc1ccc(S(=O)(=O)N2C(=O)CCC2C(=O)N2CCCC2)cc1C (stereo not drawn)
Result: -4.46

Ask: Identify measured inhibition corresponding to Cc1cccc(CNC(=O)C2CCN(c3cnc4nccnc4c3)CC2)c1
Result: -128

Ask: Identify measured inhibition corresponding to O=C1Nc2ccccc2C1c1c(-c2ccccc2Cl)[nH]c2[nH]c(=O)[nH]c(=O)c12 (stereo not drawn)
Result: 8.48

Ask: Identify measured inhibition corresponding to COCCN(CCOC)S(=O)(=O)c1ccc(C(=O)Nc2sccc2C(N)=O)cc1
Result: 7.55

Ask: Identify measured inhibition corresponding to O=C(NCc1cccnc1)[C@@H]1CC[C@@H]2[C@@H](CCN2c2ncc(F)cn2)O1
Result: -63.6

Ask: Identify measured inhibition corresponding to Cc1cccc(NC(=O)Cn2c(C)ncc(C(=O)NC3CCCC3)c2=O)c1C
Result: 2.77

Ask: Identify measured inhibition corresponding to CNc1nc(C2CCCN(C)C2)nc2c1CCN(C(=O)Cc1c[nH]c3ccccc13)C2 (stereo not drawn)
Result: -1.33

Ask: Identify measured inhibition corresponding to Cn1nc(C(=O)Nc2ccc(F)cc2)c(=O)c2ccccc21
Result: 32.8

Ask: Identify measured inhibition corresponding to O=c1ccc(-c2nc(-c3cnccn3)no2)cn1Cc1ccccc1C(F)(F)F
Result: 7.06
